- Test system: ACHN renal
- ASSAY: NCI-60 one-dose screen, 48 h (100 = growth as untreated, 0 = no growth, -100 = all killed)
- CONDITIONS_USED: 10 µM unless noted
The panel holds about 83,000 compounds, 20% with a hit somewhere; the sample as a whole holds those more often. The source made the active and inactive calls. Rule for the calls: active = growth percent below 10; inactive = the rest.
ASSAY_ENDPOINT: growth

Example entries and their recorded answers appear below.
NCCCNc1nc2ccccc2c2c(=O)c3cccc(Cl)c3sc12
7.6% (active)
O=C1/C(=C2/C=Nc3ccccc32)N(O)c2ccccc21
68.7% (inactive)
COc1ccccc1N1C(=O)/C(=C/C2=Cc3ccccc3OC2)SC1=S
96.9% (inactive)
N#C/C(=C\c1ccc(Br)cc1)n1nnc2cc(F)c(F)cc21
24% (inactive)
COc1cc(/C=C/C(=O)c2c(C)nc3ccccc3c2C)ccc1OCCCN1CCN(C(=O)c2ccco2)CC1
80.6% (inactive)
O=C(c1ccccc1)N1N=C(c2ccccc2)CC1c1nnc2n(Cc3ccccc3)c(=O)c3c4c(sc3n12)CCCC4 (centres undefined)
99.8% (inactive)
N#Cc1c(-c2cccc(Cl)c2)cc(-c2cccc(F)c2)[nH]c1=O
90.3% (inactive)
COc1ccc(-c2nc(SCC(=O)Nc3nc(-c4ccccc4)cs3)[nH]c(=O)c2C#N)cc1
104% (inactive)

input: Fill blank: measured growth of the compound Cc1ccc2nc3ccccc3c(NCc3ccccc3)c2c1 is ____.
output: 23.2% (inactive)

input: Recorded growth for Nc1nc(N)c2c(n1)NC(c1ccccc1)C1CCc3ccccc3C1=N2 (centres undefined) , please?
output: 39.3% (inactive)

input: Bench note: what growth did CN(Cc1cnc2nc(N)nc(N)c2n1)c1ccc(C(=O)N[C@@H](CCc2nn[nH]n2)c2nn[nH]n2)cc1 show?
output: 33.6% (inactive)

###

- Tested on: COLO 205 colon
- ASSAY: NCI-60 one-dose screen, 48 h (100 = growth as untreated, 0 = no growth, -100 = all killed)
- CONDITIONS_USED: 10 µM unless noted
- Procedure: Cells are grown in 96 well plates and exposed to the test compound for 48 hours. Compounds are tested at a single concentration, which is 10^-5 M for most compounds. The reported endpoint is percent growth (GI% or GIPRCNT), where numbers from 0 - 100% represent growth inhibition, and numbers from -100% - 0 represent cell death. For example, a value of 40 represents 60% growth inhibition. A value of 0 means no net growth occurred over the course of the experiment. […]
Compounds without any hit were thinned out: in the full panel of roughly 83,000, 20% have a hit.
Classification field: Met = growth at or over 70%; Not met = growth under 70%.

Observe how each entry below is paired with its result.
Cn1ccc2c(c1=O)C(=O)c1nccc3c1c-2nc1ccccc13
Not met
Cn1c(=O)c2[nH]c(NN)nc2n(C)c1=O
Met

input: In plain terms: is recorded growth at least 70% for Cc1ccc(S(=O)(=O)NCC[C@@H]2C[C@H]2c2cc3ccccc3s2)cc1 ?
output: Met

input: Is reported growth greater than or equal to 70% here: COc1ccc(NC(=O)CSc2nnc(-c3cc(-c4ccccc4)nc4ccccc34)n2-c2ccccc2)cc1
output: Met

input: Confirm if growth reported for the compound CCc1ccccc1-n1c(-c2ccc(Cl)cc2)cc(-c2ccc(OC)cc2)c(C#N)c1=O is 70% or above.
output: Met

###

- System: A549/ATCC NSCLC
- ASSAY: NCI-60 one-dose screen, 48 h (100 = growth as untreated, 0 = no growth, -100 = all killed)
- CONDITIONS_USED: 10 µM unless noted
Compounds without any hit were thinned out: in the full panel of roughly 83,000, 20% have a hit.
// assign Satisfied if growth falls strictly below 50%, else Not satisfied (ties count as Not satisfied)

Look over these answered cases.
CC1OC(O[C@H]2/C=C/C=C/C=C/C=C/C=C/C=C/C=C/[C@H](C)[C@@H](O)[C@@H](C)[C@H](C)OC(=O)CC(O)CC(O)CCC(O)C(O)CC(O)C[C@]3(O)C[C@H](O)C(C(=O)O)C(C2)O3)C(O)[C@H](N)C1O (stereo partly drawn)
Satisfied
COc1cc(/C=N/NC(=O)Cn2c(C(C)C)nc3ccccc32)ccc1O
Not satisfied
CC(C)Sc1nc(NNC(N)=S)c(C#N)c(-c2ccc(F)cc2)n1
Not satisfied
CCN(CC)CCN1CC(O)=C(c2nc(-c3ccc(Cl)cc3)cs2)C1=N
Satisfied
O=c1c2cc(F)ccc2sc2c(Nc3cccnc3)nc3ccccc3c12
Not satisfied
O=C(CCc1nnc(CN(c2ccccc2)c2ccccc2)o1)c1nc2ccccc2[nH]1
Not satisfied

Below: the item to evaluate.
input: I wonder whether Cc1c(O)cc(-c2cnc(N/N=C\c3ccc(Cl)cc3)s2)c(O)c1C has growth below 50%. Can you tell?
output: Not satisfied

###

- Tested on: A498 renal
- ASSAY: NCI-60 one-dose screen, 48 h (100 = growth as untreated, 0 = no growth, -100 = all killed)
- CONDITIONS_USED: 10 µM unless noted
About 83,000 compounds went through this panel and 20% of them were active in at least one assay; those are over-represented in the sample as a whole.
# strict inequality: growth < 50% yields t, everything else yields f

c1ccc(-c2nc([P+](c3ccccc3)(c3ccccc3)c3ccccc3)c(N3CCOCC3)o2)cc1
t
COc1ccc(/C=C/c2c(C(=O)/C=C/c3ccc(F)cc3)c(C)nc3ccccc23)cc1
f
COc1cccc(/C=C/C(=O)c2c(C)nc3ccccc3c2/C=C/c2ccc(C)cc2)c1OC
f

input: Problem: For the compound COc1cc(C2CC(=O)Nc3c2c(C)nn3-c2nc3ccccc3[nH]2)c(OC)c2c1OCO2 (configuration not stated) , is growth under 50%?
output: t

input: Regarding O=C(NCCc1ccc(O)c(O)c1)C12CC3CC(CC(C3)C1)C2 , kindly confirm whether its growth is beneath 50%.
output: f

input: Decide: growth of COc1ccc(-c2ccc3c(c2)sc2nc(-c4ccc(F)cc4)cn23)cc1 strictly below 50%?
output: f

input: Does this compound meet the criterion growth < 50%? O=c1[nH]nc(-c2ccccc2)c2c(-c3ccccc3)onc12
output: t

input: Dear colleague, could you confirm whether growth of O=C1CCc2c(sc3[nH]c(=S)n(-c4ccc(OC(F)(F)F)cc4)c(=O)c23)C1 falls below 50%? Thanks.
output: f

input: Determine whether this compound shows growth lower than 50% (ties excluded): CC/C=C\C[C@H](O)C/C=C1/C(=O)C=C[C@@H]1C/C=C\CCCC(=O)OC
output: f

input: A record lists COc1cccc(-c2nn(-c3ccccc3)cc2-c2ccnc(NCCNC(=O)c3ccccc3)c2)c1 . Is its growth below 50%?
output: t

input: growth under 50%? Item: O=Cc1ccc(O)c2ncccc12
output: f

input: In the record for COc1cccc(-c2nn(-c3ccccc3)cc2-c2ccnc(NCCNC(=O)Nc3ccc(Cl)c(Cl)c3)c2)c1 , is growth less than 50%?
output: t

input: Strictly below 50%: is that where growth of CC1OC(O[C@H]2/C=C/C=C/C=C/C=C/C=C/C=C/C=C/[C@H](C)[C@@H](O)[C@@H](C)[C@H](C)OC(=O)CC(O)CC(O)CCC(O)C(O)CC(O)C[C@]3(O)C[C@H](O)C(C(=O)O)C(C2)O3)C(O)[C@H](N)C1O (some centres not stated) sits?
output: t

input: A record lists Cc1cc(NCc2cc(Nc3ccnc4cc(Cl)ccc34)ccc2F)nc(N2CCN(C)CC2)n1 . Is its growth below 50%?
output: t

input: hey, is growth for COc1c(CCC[P+](c2ccccc2)(c2ccccc2)c2ccccc2)cc2c(c1OC)OCO2 lower than 50% or not?
output: t

input: Bench note: check whether COc1ccc2[nH]c(O)c(C(=Nc3ccc(N(C)C(=O)CN4CCN(C)CC4)cc3)c3ccccc3)c2c1 shows growth below 50%
output: t

input: Confirm or reject: growth of Cc1cc(NCc2cc(Nc3ccnc4cc(Cl)ccc34)ccc2F)nc(N2CCOCC2)n1 lies strictly below 50%
output: f

###

- Tested on: TK-10 renal
- ASSAY: NCI-60 one-dose screen, 48 h (100 = growth as untreated, 0 = no growth, -100 = all killed)
- CONDITIONS_USED: 10 µM unless noted
The panel holds about 83,000 compounds, 20% with a hit somewhere; the sample as a whole holds those more often.
Each item that follows carries a reported growth.
Give just the numeric value; % need not be written.

Below, 2 compounds whose answers are already recorded.
Fc1ccc(CNc2c3ccccc3nc3ccccc23)cc1F
51.1
CCCCn1c(=O)c2c(nc3n2CCCN3CCc2ccc(OCC(=O)NCCN(CC)CC)cc2)n(CCCC)c1=O
71.7

Next compound, growth to be filled in.
input: Reported growth, compound COc1cccc(C(=O)NCCCNc2cc(-c3cn(-c4ccccc4)nc3-c3cccc(OC)c3)ccn2)c1 : ____
output: 55.2

Hello, the source for this data is PubChem BioAssay (NCI), in case you need it.
